TARGET_SYSTEM: Rho-kinase (Bos taurus)
Construct: thus detecting the band of Rho-kinase at around 160 kDa; tissue Shiraimatsu; host or cells: bovine brain (cerebral gray matter) extract
Sequence (Q28021 whole entry): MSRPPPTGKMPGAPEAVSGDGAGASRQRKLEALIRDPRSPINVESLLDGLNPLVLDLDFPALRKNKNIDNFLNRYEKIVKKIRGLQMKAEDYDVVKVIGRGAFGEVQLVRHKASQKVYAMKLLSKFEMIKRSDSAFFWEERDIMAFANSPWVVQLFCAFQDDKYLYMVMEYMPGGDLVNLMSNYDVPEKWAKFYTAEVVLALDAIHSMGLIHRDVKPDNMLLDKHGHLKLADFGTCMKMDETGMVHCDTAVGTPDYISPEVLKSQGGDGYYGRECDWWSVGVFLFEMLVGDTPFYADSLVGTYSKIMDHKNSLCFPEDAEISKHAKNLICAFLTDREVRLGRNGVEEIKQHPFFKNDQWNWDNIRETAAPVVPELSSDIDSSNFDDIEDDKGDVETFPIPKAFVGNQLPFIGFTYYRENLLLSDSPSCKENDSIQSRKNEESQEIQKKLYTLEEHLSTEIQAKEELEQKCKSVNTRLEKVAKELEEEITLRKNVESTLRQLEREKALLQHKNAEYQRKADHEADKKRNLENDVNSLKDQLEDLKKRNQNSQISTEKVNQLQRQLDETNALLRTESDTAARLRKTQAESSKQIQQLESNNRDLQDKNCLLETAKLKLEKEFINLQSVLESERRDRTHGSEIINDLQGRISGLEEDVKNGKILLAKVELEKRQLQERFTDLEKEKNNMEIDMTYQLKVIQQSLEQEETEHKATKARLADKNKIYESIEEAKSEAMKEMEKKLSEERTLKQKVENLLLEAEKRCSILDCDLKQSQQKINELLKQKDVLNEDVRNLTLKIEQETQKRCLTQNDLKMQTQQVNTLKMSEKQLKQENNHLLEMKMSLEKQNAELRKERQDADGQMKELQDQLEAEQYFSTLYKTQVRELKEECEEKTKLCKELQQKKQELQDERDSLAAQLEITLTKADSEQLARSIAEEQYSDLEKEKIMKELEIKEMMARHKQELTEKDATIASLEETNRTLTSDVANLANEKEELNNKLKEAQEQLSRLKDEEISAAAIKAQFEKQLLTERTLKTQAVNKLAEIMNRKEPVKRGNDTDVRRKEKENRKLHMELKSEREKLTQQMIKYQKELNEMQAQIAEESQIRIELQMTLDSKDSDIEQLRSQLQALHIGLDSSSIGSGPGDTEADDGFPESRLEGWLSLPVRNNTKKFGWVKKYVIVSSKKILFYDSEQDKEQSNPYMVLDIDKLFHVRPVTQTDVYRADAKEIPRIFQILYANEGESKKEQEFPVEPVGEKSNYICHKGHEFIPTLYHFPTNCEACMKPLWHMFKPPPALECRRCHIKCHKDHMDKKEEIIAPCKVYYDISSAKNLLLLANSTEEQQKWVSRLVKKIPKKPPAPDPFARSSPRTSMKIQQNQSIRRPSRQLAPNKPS
ASSAY_COMMENT: antibody plate assay: Rho-kinase immobilized from bovine brain extract, phosphorylation of Histone HF2A
Type: biochemical
EXPERIMENTAL_SETUP: Histone HF2A substrate, [33P]ATP, reaction time four hours, read-out: IC50 value, bovine brain

{"STRUCTURE_AS_SMILES": "COc1ccc2c(c[n+](C)c3c4cc5c(cc4ccc23)OCO5)c1OC", "IC50": "20 µM"}

* * *

TARGET_SYSTEM: Rho-kinase (Bos taurus)
Construct: thus detecting the band of Rho-kinase at around 160 kDa; tissue Shiraimatsu; host or cells: bovine brain (cerebral gray matter) extract
ASSAY_COMMENT: antibody plate assay: Rho-kinase immobilized from bovine brain extract, phosphorylation of Histone HF2A
Format: biochemical
EXPERIMENTAL_SETUP: IC50 value, bovine brain, Histone HF2A substrate, [33P]ATP, reaction time four hours
pIC50: −log10 of the molar value.

{"MOLECULE": "C[C@@H](N)[C@H]1CC[C@H](C(=O)Nc2ccncc2)CC1 [Y-27632]", "pIC50": 6.46}
